system: Mycobacterium ulcerans; test: Antimicrobial activity against Mycobacterium ulcerans 1615 expressing luciferase reporter gene assessed as growth inhibition after 6 days by luminometry; type: functional; settings: Mycobacterium ulcerans, 1615, 144 h
So basically, if GI50 comes in under 9 µM it's Y, and if it's 9 µM or more it's N.

Known results for compounds:
COc1ccc(-c2cc3c(c(/C=C/N(C)C)n2)C(=O)c2ccccc2C3=O)cc1 : Y
CN(C)/C=C/c1nc(-c2ccc(Cl)cc2)cc2c1C(=O)c1ccccc1C2=O : Y
Cc1ccc(-c2cc3c(c(/C=C/N(C)C)n2)C(=O)c2ccccc2C3=O)cc1 : Y
COc1ccc(-c2cc(O)c3c(c2)C(=O)c2ccccc2C3=O)cc1 : Y
CN(C)/C=C/c1nc(-c2ccc(F)cc2)cc2c1C(=O)c1ccccc1C2=O : Y

Request: Would you kindly verify if GI50 of O=C1c2ccccc2C(=O)c2c(O)cc(-c3ccccc3)cc21 is strictly less than 9 µM?
Result: N

Request: Would you kindly verify if GI50 of COc1ccc(-c2cc3c4c(nccc4n2)-c2ccccc2C3=O)cc1 is strictly less than 9 µM?
Result: Y

Request: Would you kindly verify if GI50 of O=C1c2ccccc2-c2nccc3nc(-c4ccccc4)cc1c23 is strictly less than 9 µM?
Result: N

Request: Would you kindly verify if GI50 of CN(C)/C=C/c1nc(-c2ccccc2)cc2c1C(=O)c1ccccc1C2=O is strictly less than 9 µM?
Result: Y

---

test system: Mycobacterium tuberculosis; assay: Antimicrobial activity against Mycobacterium tuberculosis H37Rv ATCC 27294 expressing luciferase reporter gene assessed as reduction in bacterial count after 6 days by luminometry; assay type: functional; settings: H37Rv ATCC 27294, 144 h
readout_name: log10 MIC90 (log10 of the value in µM)
Note: values are log10 of MIC90 expressed in µM.

COc1ccc(-c2cc3c4c(nccc4n2)-c2ccccc2C3=O)cc1 : -0.04
O=C1c2ccccc2-c2nccc3nc(-c4ccc(Cl)cc4)cc1c23 : 0.27
CN(C)/C=C/c1nc(-c2ccc(F)cc2)cc2c1C(=O)c1ccccc1C2=O : -0.06
NNC(=O)c1ccncc1 : -1.05

Look at each compound and report its log10 MIC90.
1. O=C1c2ccccc2-c2nccc3nc(-c4ccc(F)cc4)cc1c23
2. O=C1c2ccccc2-c2nccc3nc(-c4ccccc4)cc1c23

Result:
1. 0.18
2. 0.08

---

assay: Therapeutic index, ratio of IC50 for human HepG2/C3A cells to GI50 for Mycobacterium tuberculosis H37Rv ATCC 27294; format: cell-based; conditions: read-out: TI
Could you please report measured selectivity ratio for the items listed next?
One number for each entry.

Take a look at these entries with their results.
CN(C)/C=C/c1nc(-c2ccccc2)cc2c1C(=O)c1ccccc1C2=O : 46.9
CN(C)/C=C/c1nc(-c2ccc(Cl)cc2)cc2c1C(=O)c1ccccc1C2=O : 34.2
O=C1c2ccccc2-c2nccc3nc(-c4ccccc4)cc1c23 : 39.1

Look at each compound and report its selectivity ratio.
1. Cc1ccc(-c2cc3c4c(nccc4n2)-c2ccccc2C3=O)cc1
2. O=C1c2ccccc2C(=O)c2c(O)cc(-c3ccccc3)cc21
3. COc1ccc(-c2cc3c(c(/C=C/N(C)C)n2)C(=O)c2ccccc2C3=O)cc1
4. CN(C)/C=C/c1nc(-c2ccc(F)cc2)cc2c1C(=O)c1ccccc1C2=O

Result:
[16.6, 12.6, 92.5, 91]

Look at each compound and report its selectivity ratio.
1. COc1ccc(-c2cc(O)c3c(c2)C(=O)c2ccccc2C3=O)cc1
2. Cc1ccc(-c2cc3c(c(/C=C/N(C)C)n2)C(=O)c2ccccc2C3=O)cc1

Result:
[4.2, 40.4]
